Biological target: T1, P01.1 peptide
T1 chain: KKIVTILKKLVK
Experiment: concentration-dependent circular dichroism (222 nm, 40% TFE)
No end group written: not given here.
Assay Metric: pKd
pKd here: minus log base 10 of the concentration, concentration in moles per litre.

(Q) Record request: pKd value, item KKIVTILKKLVK-NH2 [P01.1 peptide]
(A) 3.11
